Collected IC50 values appear next to each entry.
Biological target: human HPK1 protein (Homo sapiens, UniProt Q92918)
Construct: recombinant human HPK1 protein (a.a. 1-346) was expressed in Sf9 insect cells; GST (N); purchased Signalchem M23-11G; host or cells: Sf9 insect cells (baculovirus)
Sequence (Q92918 1-346): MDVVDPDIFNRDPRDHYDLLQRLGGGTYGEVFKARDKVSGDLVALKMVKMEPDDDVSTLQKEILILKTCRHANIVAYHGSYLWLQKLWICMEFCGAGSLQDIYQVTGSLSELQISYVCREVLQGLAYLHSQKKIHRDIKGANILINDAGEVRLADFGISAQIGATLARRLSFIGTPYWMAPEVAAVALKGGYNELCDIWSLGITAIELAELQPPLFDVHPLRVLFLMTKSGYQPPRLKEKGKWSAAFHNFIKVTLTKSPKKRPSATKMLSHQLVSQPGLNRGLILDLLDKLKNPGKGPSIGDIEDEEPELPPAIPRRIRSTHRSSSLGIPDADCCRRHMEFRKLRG
Assay: Human HPK1 protein TR-FRET assay
Format: biochemical
Conditions: 1 mM ATP, Table 20

The cases that follow already have their IC50 on record.
[[record]]
compound = "CC[C@@H]1CN(C(=O)Nc2ccc(CN3CCN(C)CC3)c(C(F)(F)F)c2)Cc2cc(Oc3ccnc4[nH]c(C5(O)COC5)cc34)cnc21 [XIV-50]"
system_under_test = "human HPK1 protein (Homo sapiens, UniProt Q92918)"
measure_name = "IC50"
observed_result = "< 0.5 µM"

[[record]]
compound = "CCN1CCN(Cc2ccc(NC(=O)N3CCc4ncc(Oc5ccnc6[nH]ccc56)cc4[C@@H]3C)cc2C(F)(F)F)CC1 [XI-3]"
system_under_test = "human HPK1 protein (Homo sapiens, UniProt Q92918)"
measure_name = "IC50"
observed_result = "< 0.5 µM"

[[record]]
compound = "CCN1CCN(Cc2ccc(NC(=O)N3Cc4cc(Oc5ccnc6[nH]c(C7CC7)nc56)cnc4C(C)C3)cc2C(F)(F)F)CC1 (single isomer, unassigned) [XIV-15]"
system_under_test = "human HPK1 protein (Homo sapiens, UniProt Q92918)"
measure_name = "IC50"
observed_result = "< 0.5 µM"


Q) Tell me the measured IC50 of CC[C@H]1CN(C(=O)Nc2cnc(CN3CCN(CC)CC3)c(C(F)(F)F)c2)Cc2cc(Oc3ccnc4[nH]ccc34)cnc21 [XIV-10] , please.
A) < 0.5 µM

Q) Tell me the measured IC50 of Cc1cc2c(Oc3cnc4c(c3)CN(C(=O)Nc3ccc(CN5C[C@H]6C[C@@H]5CN6C)c(C(F)(F)F)c3)C[C@H]4C)ccnc2[nH]1 [XIV-99] , please.
A) 0.5 to 5 µM

Q) Tell me the measured IC50 of C[C@@H]1Cc2ccc(Oc3c(F)cnc4[nH]c(C5(O)CC5)cc34)cc2CN1C(=O)Nc1cnc(CN2CCN(C)CC2)c(C(F)(F)F)c1 [XVI-8] , please.
A) < 0.5 µM

Q) Tell me the measured IC50 of CN1CCN(Cc2ccc(NC(=O)N3CCc4ccc(Nc5c(F)cnc6[nH]c(-c7cnn(C)c7)cc56)cc4C3)cc2C(F)(F)F)CC1 [compound 22] , please.
A) < 0.5 µM

Q) Tell me the measured IC50 of CC[C@H]1CN(C(=O)Nc2ccc(CN3CCN(C)CC3)c(C(F)(F)F)c2)Cc2cc(Oc3ccnc4[nH]c(-c5nnc(C)o5)cc34)cnc21 [XIV-112] , please.
A) < 0.5 µM

Q) Tell me the measured IC50 of C[C@H]1CN(C(=O)Nc2ccc(CN3CCN(C)CC3)c(C(F)(F)F)c2)Cc2cc(Oc3ccnc4[nH]c(C#N)cc34)ccc21 [XV-34] , please.
A) < 0.5 µM

Q) Tell me the measured IC50 of CC[C@H]1CN(C(=O)Nc2ccc(CN3CCNCC3)c(C(F)(F)F)c2)Cc2cc(Oc3ccnn4cc(C(=O)NC)nc34)cnc21 [XIV-129] , please.
A) 0.5 to 5 µM

###

Target: human HPK1 protein (Homo sapiens)
Construct: recombinant human HPK1 protein (a.a. 1-346) was expressed in Sf9 insect cells; GST (N); purchased Signalchem M23-11G; host or cells: Sf9 insect cells (baculovirus)
Sequence (Q92918 1-346): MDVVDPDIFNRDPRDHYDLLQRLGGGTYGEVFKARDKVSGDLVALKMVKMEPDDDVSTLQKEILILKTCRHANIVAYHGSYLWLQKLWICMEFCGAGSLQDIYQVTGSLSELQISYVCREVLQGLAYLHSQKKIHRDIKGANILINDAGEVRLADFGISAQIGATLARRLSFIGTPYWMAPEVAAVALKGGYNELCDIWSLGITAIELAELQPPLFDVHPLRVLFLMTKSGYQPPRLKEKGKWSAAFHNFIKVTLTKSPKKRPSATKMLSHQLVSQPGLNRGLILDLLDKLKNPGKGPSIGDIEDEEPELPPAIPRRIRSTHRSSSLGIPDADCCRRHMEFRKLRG
Assay: Human HPK1 protein TR-FRET assay
Format: biochemical
Conditions: 1 mM ATP, Table 19
Collected IC50 values appear next to each entry.

The cases that follow already have their IC50 on record.
[[record]]
compound = "CCN1CCN(Cc2ccc(NC(=O)N3CCc4ncc(Oc5ccnc6[nH]c(C)cc56)cc4C3C)cc2C(F)(F)F)CC1 (single isomer, unassigned) [VIII-2]"
measure_name = "IC50"
observed_result = "< 500 nM"

[[record]]
compound = "Cc1cc2c(Oc3ccc4c(c3)[C@H](C)N(C(=O)Nc3cnc(OC5CCN(C)CC5C)c(C(F)(F)F)c3)CC4)ccnc2[nH]1 (stereo in doubt) [VI-5]"
measure_name = "IC50"
observed_result = "< 500 nM"

[[record]]
compound = "CCN1CCN(Cc2ccc(NC(=O)N3CCc4ccc(Oc5ccnc6[nH]c(C#N)cc56)cc4[C@@H]3C)cc2C(F)(F)F)CC1"
measure_name = "IC50"
observed_result = "< 500 nM"

[[record]]
compound = "CCN1CCC(Oc2ccc(NC(=O)N3CCc4ccc(Oc5ccnc6[nH]ccc56)cc4[C@@H]3C)cc2C(F)F)CC1"
measure_name = "IC50"
observed_result = "500 to 5000 nM"

[[record]]
compound = "CCN1CCN(Cc2ccc(NC(=O)N3CCc4ccc(Oc5c(F)cnc6[nH]ccc56)cc4C3)cc2C(F)(F)F)CC1"
measure_name = "IC50"
observed_result = "< 500 nM"

[[record]]
compound = "Cc1cc2c(Oc3ccc4c(c3)[C@H](C)N(C(=O)Nc3cnc(OC5CCN(CCO)CC5)c(C(F)(F)F)c3)CC4)ccnc2[nH]1"
measure_name = "IC50"
observed_result = "< 500 nM"


Q) Tell me the measured IC50 of CCN1CCC(Oc2ncc(NC(=O)N3CCc4ccc(Oc5ccnc6[nH]c(C)cc56)cc4[C@@H]3C)cc2C(F)(F)F)CC1 , please.
A) < 500 nM

Q) Tell me the measured IC50 of Cc1cc2c(Oc3ccc4c(c3)[C@H](C)N(C(=O)Nc3cnc(OC5CCN(C)CC5C)c(C(F)(F)F)c3)CC4)ccnc2[nH]1 (stereo in doubt) [VI-4] , please.
A) 500 to 5000 nM

Q) Tell me the measured IC50 of CCN1CCN(Cc2ccc(NC(=O)N3Cc4cc(Oc5ccnc6[nH]c(C)cc56)cnc4C(C)C3)cc2C(F)(F)F)CC1 (single isomer, unassigned) [VII-21] , please.
A) < 500 nM

Q) Tell me the measured IC50 of CCN1CCN(Cc2ccc(NC(=O)N3CCc4ccc(Oc5ccnc6[nH]ccc56)cc4C3)cc2C(F)(F)F)CC1 , please.
A) < 500 nM

Q) Tell me the measured IC50 of Cc1cc2c(Oc3ccc4c(c3)CN(C(=O)Nc3cnc(OC5CCN(C)CC5)c(C(F)(F)F)c3)CC4C)ccnc2[nH]1 (single isomer, unassigned) [IV-40] , please.
A) < 500 nM

###

Target: human HPK1 protein (Homo sapiens)
Construct: recombinant human HPK1 protein (a.a. 1-346) was expressed in Sf9 insect cells; GST (N); purchased Signalchem M23-11G; host or cells: Sf9 insect cells (baculovirus)
Experiment: Human HPK1 protein TR-FRET assay
Assay type: biochemical
Conditions: 1 mM ATP, Table 20
Experimental: Exemplary compounds from the above Examples were tested for ability to inhibit HPK1 using a human HPK1 protein TR-FRET Assay. Assay procedures and results are described below. […] The fluorescence resonance energy transfer (FRET) signal was measured on an Envision plate reader: Excitation filter=340 nm, APC emission=665 nm, Europium emission=615 nm, dichroic mirror=D400/D630, delay time=100 μs, and integration time=200 μs. […]
Measure name: IC50

[[record]]
compound = "CC[C@@H]1CN(C(=O)Nc2ccc(CN3CCNCC3)c(C(F)(F)F)c2)Cc2cc(Oc3ccnc4[nH]c(C#N)cc34)ccc21"
observed_result = "< 500 nM"


Q) Tell me the measured IC50 of CC[C@H]1CN(C(=O)Nc2ccc(CN3CCNCC3)c(C(F)(F)F)c2)Cc2cc(Oc3ncnc4[nH]c(C(=O)N(C)C)cc34)cnc21 , please.
A) < 500 nM

Q) Tell me the measured IC50 of CCN1CCN(Cc2ccc(NC(=O)N3Cc4cc(Oc5ccnc6[nH]nnc56)cnc4C(C)C3)cc2C(F)(F)F)CC1 (single isomer, unassigned) , please.
A) > 10000 nM
